Source listed as the supplement of paper PMC12350171.

Reported growth AUC normalised to DMSO control is given for each of the following compounds.
System: Haemophilus parainfluenzae
test_summary: growth AUC normalised to DMSO control (fraction of control); higher = less growth inhibition, active = hit call of the paper
stated_conditions: 20 µM
Where a name gives a salt, the structure may show the parent alone.
reported_endpoint: growth AUC normalised to DMSO control

compound | assay_result
CCc1cc(C(N)=S)ccn1 [Ethionamide] | 0.983
CC(C)(O)c1ccccc1CC[C@@H](SCC1(CC(=O)O)CC1)c1cccc(/C=C/c2ccc3ccc(Cl)cc3n2)c1 | 0.964
CCCN1C[C@H](CSC)C[C@@H]2c3cccc4[nH]cc(c34)C[C@H]21 [Pergolide mesylate] | 1
C=C(C)[C@@H]1[C@H]2OC(=O)[C@@H]1[C@]1(O)C[C@H]3O[C@]34C(=O)O[C@H]2[C@]14C | 1
COc1cc(NC(C)CCCN)c2ncccc2c1 (stereo not drawn) [Primaquine diphosphate] | 1.08
C[N+](C)(C)CCOC(N)=O [Carbachol chloride] | 1.09
CC(C)c1c(CN(C)C(C)Cc2ccccc2)n(C)n(-c2ccccc2)c1=O (stereo not drawn) | 0.971
CN(C)c1ccc(O)c2c1C[C@H]1C[C@H]3[C@H](N(C)C)C(=O)C(C(N)=O)=C(O)[C@@]3(O)C(=O)C1=C2O [Minocycline hydrochloride] | 0.0348
COc1cccc(N(C)C(=S)Oc2ccc3c(c2)CCCC3)n1 [Liranaftate] | 1.01
C[C@]12CC[C@@H]3c4ccc(O)cc4CC[C@H]3[C@@H]1C[C@@H](O)[C@@H]2O | 1.02
CCN(CCCCOC(=O)c1ccc(OC)c(OC)c1)C(C)Cc1ccc(OC)cc1 (stereo not drawn) [Mebeverine hydrochloride] | 1.03
COc1c(N2C[C@@H]3CCCN[C@@H]3C2)c(F)cc2c(=O)c(C(=O)O)cn(C3CC3)c12 | 0.0254
Nc1nc(N)nc(-c2cc(Cl)ccc2Cl)n1 [Irsogladine maleate] | 1.01
Cn1cnc2c1c(=O)[nH]c(=O)n2C | 1.06
O=C(O)c1ccccc1OP(=O)(O)O | 0.998
CC(C)(C)NCC(O)c1cc(O)cc(O)c1 (stereo not drawn) [Terbutaline hemisulfate] | 1.06
CCN(CC)C(=O)Nc1ccc(OCC(O)CNC(C)(C)C)c(C(C)=O)c1 (stereo not drawn) [Celiprolol hydrochloride] | 0.991
O=C(c1ccc(F)cc1)C1CCN(CCn2c(=O)[nH]c3ccccc3c2=O)CC1 [Ketanserin tartrate hydrate] | 0.928

###

System: Haemophilus parainfluenzae
test_summary: growth AUC normalised to DMSO control (fraction of control); higher = less growth inhibition, active = hit call of the paper
stated_conditions: 20 µM
Counter-ions that a name gives are not always drawn.
Outcomes: Yes (active), No (inactive)

compound | cat
NC(CO)C(=O)NNCc1ccc(O)c(O)c1O (stereo not given) [Benserazide hydrochloride] | No
CN(C)CC/C=C1\c2ccccc2CSc2ccccc21 [Dosulepin hydrochloride] | No
COc1cccc(C2(O)CCCCC2CN(C)C)c1 (stereo not given) [Tramadol hydrochloride] | No
CC(C)(C)C(=O)OCOC(=O)[C@@H]1N2C(=O)[C@@H](/N=C/N3CCCCCC3)[C@H]2SC1(C)C [Pivmecillinam hydrochloride] | No
NCC(CC(=O)O)c1ccc(Cl)cc1 (stereo not given) | No
CCc1nc(N)nc(N)c1-c1ccc(Cl)cc1 | Yes
CC[C@@]1(O)C(=O)OCc2c1cc1n(c2=O)Cc2cc3c(CN(C)C)c(O)ccc3nc2-1 | No
CC(CN(C)C)CN1c2ccccc2Sc2ccccc21 (stereo not given) [Trimeprazine tartrate] | No
O=C(CCNNC(=O)c1ccncc1)NCc1ccccc1 [Nialamide] | No
C=CCN1CC[C@]23c4c5ccc(O)c4O[C@H]2C(=O)CC[C@@]3(O)[C@H]1C5 [Naloxone hydrochloride] | No
N=C(N)NC(=O)Cc1c(Cl)cccc1Cl [Guanfacine hydrochloride] | No
CC(=O)O[C@H]1C(=O)[C@@]2(C)[C@H]([C@H](OC(=O)c3ccccc3)[C@]3(O)C[C@H](OC(=O)[C@H](O)[C@@H](NC(=O)c4ccccc4)c4ccccc4)C(C)=C1C3(C)C)[C@]1(OC(C)=O)CO[C@@H]1C[C@@H]2O | No
CCCN(CCC)C(=O)C(CCC(=O)O)NC(=O)c1ccccc1 (stereo not given) [Proglumide] | No
CC(CN1c2ccccc2Sc2ccccc21)N(C)C (stereo not given) [Promethazine hydrochloride] | No
NC(=O)C[S+]([O-])C(c1ccccc1)c1ccccc1 (stereo not given) | No
CN1CCCN(C(c2ccccc2)c2ccc(Cl)cc2)CC1 (stereo not given) [Homochlorcyclizine dihydrochloride] | No
CC[N+](C)(C)c1cccc(O)c1 [Edrophonium chloride] | No
COc1ccc(C(=O)c2ccccc2)c(O)c1 | No
Cc1cc(=O)n(-c2ccccc2)n1C [Antipyrine] | No
COc1ccc2[nH]cc(CCNC(C)=O)c2c1 | No
CN(C)CCN(Cc1ccccc1)c1ccccn1 [Tripelennamine hydrochloride] | No
CC(=O)OCC(=O)NCCCOc1cccc(CN2CCCCC2)c1 [Roxatidine acetate hydrochloride] | No
Clc1ccc(CSC(Cn2ccnc2)c2ccc(Cl)cc2Cl)cc1 (stereo not given) [Sulconazole nitrate] | No
Cc1cc(C)nc(NS(=O)(=O)c2ccc(N)cc2)n1 [Sulfamethazine sodium salt] | No
O=c1[nH]cnc2c1ncn2[C@H]1CC[C@@H](CO)O1 | No
O=C1CCC(N2C(=O)c3ccccc3C2=O)C(=O)N1 (stereo not given) [Thalidomide] | No
CN(C)[C@@H]1C(=O)C(C(N)=O)=C(O)[C@@]2(O)C(=O)C3=C(O)c4c(O)ccc(Cl)c4[C@@](C)(O)[C@H]3C[C@@H]12 [Chlortetracycline hydrochloride] | Yes
CN(C)C(=O)Oc1cc(OC(=O)N(C)C)cc(C(O)CNC(C)(C)C)c1 (stereo not given) [Bambuterol hydrochloride] | No
CCN(C(C)=O)c1cccc(-c2ccnc3c(C#N)cnn23)c1 | No
CCN(CC)CCNC(=O)c1ccc(N)cc1 [Procainamide hydrochloride] | No
CN(C(=O)C(Cl)Cl)c1ccc(OC(=O)c2ccco2)cc1 [Diloxanide furoate] | No
Clc1ccc(C(Cn2ccnc2)OCc2csc3c(Cl)cccc23)c(Cl)c1 (stereo not given) [Sertaconazole nitrate] | No
C[N+]12CCC(CC1)C(OC(=O)C(O)(c1ccccc1)c1ccccc1)C2 (stereo not given) [Clidinium bromide] | No
CC(C)NCC(O)COc1ccc(COCCOC(C)C)cc1 (stereo not given) [Bisoprolol hemifumarate] | No
CCN1CCC[C@H]1CNC(=O)c1c(OC)ccc(Br)c1OC [Remoxipride hydrochloride] | No

###

Reported growth AUC normalised to DMSO control is given for each of the following compounds.
Tested on: S. enterica typhimurium WT;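 also: active when median AUC fell below 0.1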
test_summary: growth AUC normalised to DMSO control (median) (fraction of control); higher = less growth inhibition, active = hit call of the paper
stated_conditions: 20 µM

compound | growth AUC normalised to DMSO control
CC(=O)OCC1=C(C(=O)O)N2C(=O)[C@@H](N)[C@H]2SC1 | 1 (inactive)
CCCC(C)C1(CC)C(=O)NC(=O)NC1=O (stereo not given) | 1.01 (inactive)
C[C@]12CC[C@H](O)CC1=CC[C@@H]1[C@@H]2CC[C@]2(C)C(=O)CC[C@@H]12 | 1.01 (inactive)
CCC1(C)CC(=O)NC(=O)C1 [Bemegride] | 1.02 (inactive)
Oc1ccc(Cl)cc1Cc1cc(Cl)ccc1O | 0.915 (inactive)

###

Test system: Haemophilus parainfluenzae
test_summary: growth AUC normalised to DMSO control (fraction of control); higher = less growth inhibition, active = hit call of the paper
stated_conditions: 20 µM
Where a name gives a salt, the structure may show the parent alone.
Outcomes: TRUE for active, FALSE for inactive

molecule | measured_on | cat
CC1Cc2ccccc2N1NC(=O)c1ccc(Cl)c(S(N)(=O)=O)c1 (centres undefined) [Indapamide] | Haemophilus parainfluenzae | FALSE
O=C(O)Cc1cc(I)c(Oc2ccc(O)c(I)c2)c(I)c1 [Tiratricol] | Haemophilus parainfluenzae | FALSE
Cc1ccc(Cl)c(Nc2ccccc2C(=O)O)c1Cl [Meclofenamic acid sodium salt monohydrate] | Haemophilus parainfluenzae | FALSE
CC1(C)O[C@@H]2C[C@H]3[C@@H]4CCC5=CC(=O)CC[C@]5(C)[C@@]4(F)[C@@H](O)C[C@]3(C)[C@]2(C(=O)CCl)O1 [Halcinonide] | Haemophilus parainfluenzae | FALSE
CC(C)[N+](C)(CCC(C(N)=O)(c1ccccc1)c1ccccc1)C(C)C [Isopropamide iodide] | Haemophilus parainfluenzae | FALSE
COc1cc([C@@H]2c3cc4c(cc3[C@@H](O[C@@H]3O[C@@H]5CO[C@@H](C)O[C@H]5[C@H](O)[C@H]3O)[C@H]3COC(=O)[C@H]23)OCO4)cc(OC)c1O [Etoposide] | Haemophilus parainfluenzae | FALSE
CCN(CC)CCOC(=O)c1ccc(N)cc1 [Procaine hydrochloride] | Haemophilus parainfluenzae | FALSE
Nc1ccc(S(=O)(=O)Nc2ccnn2-c2ccccc2)cc1 [Sulfaphenazole] | Haemophilus parainfluenzae | FALSE
Cc1ccc(S(=O)(=O)NC(=O)NN2CCCCCC2)cc1 [Tolazamide] | Haemophilus parainfluenzae | FALSE
Clc1ccc2c(c1)C(N1CCNCC1)=Nc1ccccc1O2 [Amoxapine] | Haemophilus parainfluenzae | FALSE
C[C@@](Cc1ccc(O)c(O)c1)(NN)C(=O)O [Carbidopa] | Haemophilus parainfluenzae | FALSE
Cc1cn([C@H]2C[C@H](N=[N+]=[N-])[C@@H](CO)O2)c(=O)[nH]c1=O [Zidovudine] | Haemophilus parainfluenzae | TRUE
Nc1nc(=O)n([C@@H]2CS[C@H](CO)O2)cc1F [(-) Emtricitabine] | Haemophilus parainfluenzae | FALSE
C[C@H](CCC(=O)O)[C@H]1CC[C@H]2[C@@H]3C(=O)C[C@@H]4CC(=O)CC[C@]4(C)[C@H]3CC(=O)[C@]12C [Dehydrocholic acid] | Haemophilus parainfluenzae | FALSE
C[C@@H]1CN([C@H]2CC[C@](C#N)(c3ccc(F)cc3)CC2)CC[C@]1(C(=O)O)c1ccccc1 [Levocabastine hydrochloride] | Haemophilus parainfluenzae | FALSE
CC(O)(CS(=O)(=O)c1ccc(F)cc1)C(=O)Nc1ccc(C#N)c(C(F)(F)F)c1 (centres undefined) [Bicalutamide] | Haemophilus parainfluenzae | FALSE
CCCCCN(CCCCC)C(=O)C(CCC(=O)O)NC(=O)c1ccc(Cl)c(Cl)c1 (centres undefined) [Lorglumide sodium salt] | Haemophilus parainfluenzae | FALSE
Clc1ccc2nsnc2c1NC1=NCCN1 [Tizanidine hydrochloride] | Haemophilus parainfluenzae | FALSE
CNC(C)(C)Cc1ccccc1 [Mephentermine hemisulfate] | Haemophilus parainfluenzae | FALSE
